Measured AUC at 24 h accompanies every entry in the list below.
# MEASUREMENT DESCRIPTION: AUC (24 hrs) in HIV-negative human at 600 mg, po administered every 24 hrs coadministered with 400 mg of atazanavir every 12 hrs
# Assay type: ADME, organism-based
# Design: time < 24 hr, dose 600 mg, route oral
# CONDITION: plasma
Answers without a unit are incomplete; give the number and then its unit.

INSERT INTO measurements (molecule, value_type, endpoint_result) VALUES
  ('CO[C@H]1/C=C/O[C@@]2(C)Oc3c(C)c(O)c4c(O)c(c(/C=N/N5CCN(C)CC5)c(O)c4c3C2=O)NC(=O)/C(C)=C\C=C\[C@H](C)[C@H](O)[C@@H](C)[C@@H](O)[C@@H](C)[C@H](O)[C@@H]1C', 'AUC at 24 h', '9400 ng·h/mL');

Here is the next item to consider.
INPUT: Looking for the measured AUC at 24 h of CO[C@H]1/C=C/O[C@@]2(C)Oc3c(C)c(O)c4c(O)c(c(/C=N/N5CCN(C)CC5)c(O)c4c3C2=O)NC(=O)/C(C)=C\C=C\[C@H](C)[C@H](O)[C@@H](C)[C@@H](O)[C@@H](C)[C@H](OC(C)=O)[C@@H]1C [RIFAMPIN] , can you help?
OUTPUT: 41700 ng·h/mL
